Data origin, for the record: paper PMC4689404

testSystem: recombinant HDAC6 (Homo sapiens, UniProt Q9UBN7)
Construct: purchased Epigenetek
Sequence (Q9UBN7 whole entry): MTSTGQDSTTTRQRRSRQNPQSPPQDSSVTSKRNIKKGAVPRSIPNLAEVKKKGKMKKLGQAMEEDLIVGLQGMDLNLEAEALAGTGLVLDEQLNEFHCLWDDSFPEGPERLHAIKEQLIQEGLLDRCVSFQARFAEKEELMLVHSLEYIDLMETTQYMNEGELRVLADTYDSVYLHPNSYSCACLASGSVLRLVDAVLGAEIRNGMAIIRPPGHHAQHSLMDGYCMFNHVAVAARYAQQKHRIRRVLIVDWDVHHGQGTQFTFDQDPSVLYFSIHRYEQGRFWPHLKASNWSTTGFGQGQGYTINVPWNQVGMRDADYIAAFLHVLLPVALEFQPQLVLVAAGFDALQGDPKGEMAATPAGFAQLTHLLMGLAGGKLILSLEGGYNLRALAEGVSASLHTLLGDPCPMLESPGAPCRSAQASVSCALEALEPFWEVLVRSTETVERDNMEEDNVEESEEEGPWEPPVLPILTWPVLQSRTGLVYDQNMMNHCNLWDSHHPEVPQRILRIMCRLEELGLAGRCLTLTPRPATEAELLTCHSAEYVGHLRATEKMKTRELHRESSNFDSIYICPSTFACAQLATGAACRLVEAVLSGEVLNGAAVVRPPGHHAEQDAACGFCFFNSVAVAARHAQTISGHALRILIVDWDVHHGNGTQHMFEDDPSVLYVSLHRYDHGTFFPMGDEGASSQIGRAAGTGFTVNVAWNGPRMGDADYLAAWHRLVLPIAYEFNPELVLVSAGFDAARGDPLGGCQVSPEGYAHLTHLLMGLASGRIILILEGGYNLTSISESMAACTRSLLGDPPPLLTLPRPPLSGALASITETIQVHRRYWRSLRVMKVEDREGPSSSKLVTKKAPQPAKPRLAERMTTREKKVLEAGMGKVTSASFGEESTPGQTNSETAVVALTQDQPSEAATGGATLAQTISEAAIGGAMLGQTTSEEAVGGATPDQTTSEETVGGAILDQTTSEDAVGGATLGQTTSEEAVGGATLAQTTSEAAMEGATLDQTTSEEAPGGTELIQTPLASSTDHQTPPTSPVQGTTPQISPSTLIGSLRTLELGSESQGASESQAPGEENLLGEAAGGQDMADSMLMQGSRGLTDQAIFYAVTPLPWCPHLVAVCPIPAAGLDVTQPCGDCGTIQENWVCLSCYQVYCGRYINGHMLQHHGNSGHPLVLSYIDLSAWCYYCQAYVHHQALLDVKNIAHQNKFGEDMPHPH
assayInfo: comparative HDAC inhibition assay (Millipore fluorometric kit)
Format: biochemical
appliedConditions: Table 3; read-out: HDAC6 IC50
endpoint: pIC50
For clarity, pIC50 is expressed as the negative log10 of concentration in mol/L.

Data request: Looking for the measured pIC50 of O=C(NO)c1ccc(S(=O)(=O)N2CCN(c3nc4ccccc4[nH]3)CC2)cc1 [Compound 9a] , can you help?
Data returned: 6.00

###

Answer each item with its documented IC50.
Test system: HBEC-34KT
assayInfo: MTS viability assay
Format: cell-based, human
appliedConditions: Homo sapiens, 96 h, Patient B normal line, 4 days, read-out: Antiproliferative activity IC50, HBEC-34KT
Note: unit µM is implicit; provide only the numeric part.

Data request: Looking for the measured IC50 of CCC(=O)CCCCC[C@@H]1NC(=O)[C@H]2CCCCN2C(=O)[C@H]([C@@H](C)CC)NC(=O)[C@H](Cc2cn(OC)c3ccccc23)NC1=O [Apicidin, reference compound] , can you help?
Data returned: 0.79

Data request: Looking for the measured IC50 of O=C(NO)c1ccc(S(=O)(=O)N2CCN(c3nc4ccccc4s3)CC2)cc1 [Compound 9d] , can you help?
Data returned: 8.22

###

Answer each item with its documented melting point.

Data request: Looking for the measured melting point of `Cn1c(N2CCN(S(=O)(=O)c3cccc(C(=O)NO)c3)CC2)nc2ccccc21` , can you help?
Data returned: 167 to 169 °C

Data request: Looking for the measured melting point of `O=C(NO)c1cccc(S(=O)(=O)N2CCN(c3nc4ccccc4s3)CC2)c1` , can you help?
Data returned: 207 to 210 °C

Data request: Looking for the measured melting point of `O=C(NO)c1cccc(S(=O)(=O)N2CCN(c3nc4ccccc4o3)CC2)c1` , can you help?
Data returned: 257 to 262 °C

Data request: Looking for the measured melting point of `O=C(NO)c1ccc(S(=O)(=O)N2CCN(c3nc4ccccc4[nH]3)CC2)cc1` , can you help?
Data returned: 382 to 383 °C (dec.)

Data request: Looking for the measured melting point of `O=C(NO)c1cccc(S(=O)(=O)N2CCN(c3nc4ccccc4[nH]3)CC2)c1` , can you help?
Data returned: 349 to 350 °C

###

testSystem: recombinant HDAC1 (Homo sapiens, UniProt Q13547)
Sequence (Q13547 whole entry): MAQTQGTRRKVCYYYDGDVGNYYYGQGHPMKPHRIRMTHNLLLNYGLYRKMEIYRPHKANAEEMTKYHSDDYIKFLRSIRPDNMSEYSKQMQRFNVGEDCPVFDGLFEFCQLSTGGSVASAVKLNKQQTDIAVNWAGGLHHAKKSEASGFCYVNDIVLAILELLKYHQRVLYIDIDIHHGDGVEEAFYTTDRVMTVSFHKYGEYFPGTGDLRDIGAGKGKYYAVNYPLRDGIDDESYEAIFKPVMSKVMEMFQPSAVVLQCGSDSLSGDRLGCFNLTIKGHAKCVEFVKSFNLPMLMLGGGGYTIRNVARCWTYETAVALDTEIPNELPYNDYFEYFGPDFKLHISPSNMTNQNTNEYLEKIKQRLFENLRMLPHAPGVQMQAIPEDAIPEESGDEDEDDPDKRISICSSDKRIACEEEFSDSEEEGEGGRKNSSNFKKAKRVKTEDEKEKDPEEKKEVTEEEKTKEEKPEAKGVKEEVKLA
assayInfo: comparative HDAC inhibition assay (Millipore fluorometric kit)
appliedConditions: recombinant HDAC1, fluorometric substrate; Table 4
endpoint: pIC50
For clarity, pIC50 is expressed as the negative log10 of concentration in mol/L.

Data request: Looking for the measured pIC50 of `O=C(NO)c1ccc(S(=O)(=O)N2CCN(c3nc4ccccc4s3)CC2)cc1` , can you help?
Data returned: 6.05

Data request: Looking for the measured pIC50 of `Cn1c(N2CCN(S(=O)(=O)c3ccc(C(=O)NO)cc3)CC2)nc2ccccc21` , can you help?
Data returned: 5.43

Data request: Looking for the measured pIC50 of `O=C(NO)c1ccc(S(=O)(=O)N2CCN(c3nc4ccccc4o3)CC2)cc1` , can you help?
Data returned: 6.04

Data request: Looking for the measured pIC50 of `O=C(NO)c1ccc(S(=O)(=O)N2CCN(c3nc4ccccc4[nH]3)CC2)cc1` , can you help?
Data returned: 5.22

###

testSystem: recombinant HDAC6 (Homo sapiens)
Construct: purchased Epigenetek
assayInfo: comparative HDAC inhibition assay (Millipore fluorometric kit)
Format: biochemical
appliedConditions: recombinant HDAC6, fluorometric substrate; Table 4; read-out: HDAC6 IC50
Answer each item with its documented IC50.
Note: unit nM is implicit; provide only the numeric part.

Data request: Looking for the measured IC50 of `O=C(NO)c1ccc(S(=O)(=O)N2CCN(c3nc4ccccc4o3)CC2)cc1` , can you help?
Data returned: 220

Data request: Looking for the measured IC50 of `O=C(NO)c1ccc(S(=O)(=O)N2CCN(c3nc4ccccc4[nH]3)CC2)cc1` , can you help?
Data returned: 930

Data request: Looking for the measured IC50 of `Cn1c(N2CCN(S(=O)(=O)c3ccc(C(=O)NO)cc3)CC2)nc2ccccc21` , can you help?
Data returned: 130

Data request: Looking for the measured IC50 of `O=C(NO)c1ccc(S(=O)(=O)N2CCN(c3nc4ccccc4s3)CC2)cc1` , can you help?
Data returned: 130
